Every entry's value here was drawn from patent US8937077B2.

- assayed-target: Jak1 (Homo sapiens, UniProt P23458)
- Construct: using a recombinant purified GST-tagged catalytic domain for each enzyme; GST; purchased Invitrogen M4290
- Sequence (P23458 875-1153 limits assumed): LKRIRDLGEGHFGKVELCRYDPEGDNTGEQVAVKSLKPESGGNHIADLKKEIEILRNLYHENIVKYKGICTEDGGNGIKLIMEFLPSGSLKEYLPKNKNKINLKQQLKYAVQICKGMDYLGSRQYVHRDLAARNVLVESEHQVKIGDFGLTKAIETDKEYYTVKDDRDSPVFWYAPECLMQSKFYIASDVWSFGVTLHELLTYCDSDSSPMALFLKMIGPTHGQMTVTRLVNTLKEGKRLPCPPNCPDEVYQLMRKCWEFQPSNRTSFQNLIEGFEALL
- protocol-summary: Jak Biochemical HTRF Assay (Jak1)
- applied-conditions: IC50 class, recombinant GST-tagged catalytic domain, read-out: Jak1 activity
pIC50: −log10 of the molar value.
measure: pIC50

The cases that follow already have their pIC50 on record.
compound	assayed-target	pIC50
O=C(C1COc2ccccc2O1)N1CCC[C@@H]2[C@H]1CCN2c1ncnc2[nH]ccc12 (stereo partly shown)	Jak1 (Homo sapiens, UniProt P23458)	7.00 to 8.00
CN(C)CCOC(=O)N1CCC[C@@H]2[C@H]1CCN2c1ncnc2[nH]ccc12 (single isomer, unassigned)	Jak1 (Homo sapiens, UniProt P23458)	6.00 to 7.00
O=C(c1cccc2ccccc12)N1CCC[C@@H]2[C@H]1CCN2c1ncnc2[nH]ccc12	Jak1 (Homo sapiens, UniProt P23458)	7.00 to 8.00
O=C(c1ccccc1)N1CCCC2C1CCN2c1ncnc2[nH]ccc12 (racemic)	Jak1 (Homo sapiens, UniProt P23458)	7.00 to 8.00
COC(=O)c1cccc(COC(=O)N2CCC[C@@H]3[C@H]2CCN3c2ncnc3[nH]ccc23)c1	Jak1 (Homo sapiens, UniProt P23458)	6.00 to 7.00

Please provide the recorded pIC50 for CC1CCN(C(=O)CC#N)C2CCN(c3ncnc4[nH]ccc34)C12 (stereo not shown) , tested on Jak1 (Homo sapiens, UniProt P23458).
6.00 to 7.00

Test system Jak1 (Homo sapiens, UniProt P23458); read-out pIC50; what value for CC(C)(C)OC(=O)N1CCC[C@@H]2[C@H]1CCN2c1ncnc2[nH]ccc12 ?
6.00 to 7.00

I'm curious: which pIC50 was measured for O=C(O)c1ccc(CNC(=O)N2CCC[C@@H]3[C@H]2CCN3c2ncnc3[nH]ccc23)cc1 tested on Jak1 (Homo sapiens, UniProt P23458)?
6.00 to 7.00

Find pIC50 (Jak1 (Homo sapiens, UniProt P23458)) for the entry c1ccc(-c2nnc(N3CCCC4C3CCN4c3ncnc4[nH]ccc34)o2)cc1 (stereo not shown)
6.00 to 7.00

Request: pIC50, test system Jak1 (Homo sapiens, UniProt P23458), entry CC(C)S(=O)(=O)N1CCC[C@@H]2[C@H]1CCN2c1ncnc2[nH]ccc12
7.00 to 8.00

For the record O=C(c1cccc(Cl)c1)N1CCC[C@@H]2[C@H]1CCN2c1ncnc2[nH]ccc12 , what value of pIC50 is listed for Jak1 (Homo sapiens, UniProt P23458)?
7.00 to 8.00

Hi! What's the reported pIC50 for O=C(OCc1ccccc1)N1CCCC2C1CCN2c1ccnc2[nH]ccc12 (stereo not shown) on Jak1 (Homo sapiens, UniProt P23458)?
6.00 to 7.00

Value wanted: pIC50 (Jak1 (Homo sapiens, UniProt P23458)) of entry CCC(=O)N1CCC[C@@H]2[C@H]1CCN2c1ncnc2[nH]ccc12 (single isomer, unassigned)
6.00 to 7.00

Provide the documented pIC50 with Jak1 (Homo sapiens, UniProt P23458) as the system for O=C(c1cn2ccccc2n1)N1CCC[C@@H]2[C@H]1CCN2c1ncnc2[nH]ccc12
6.00 to 7.00

Identify the measured pIC50 of O=C(OCCCc1ccccc1)N1CCC[C@@H]2[C@H]1CCN2c1ncnc2[nH]ccc12 for Jak1 (Homo sapiens, UniProt P23458).
8.00 to 9.00

Missing value: pIC50, Jak1 (Homo sapiens, UniProt P23458), entry COC(=O)c1ccc(CCOC(=O)N2CCC[C@@H]3[C@H]2CCN3c2ncnc3[nH]ccc23)cc1 . Fill in?
7.00 to 8.00
